- Tested on: RPMI-8226
- experiment summary: NCI 60 cell line screen
- Type: cell-based, human
- experimental context: Homo sapiens; RPMI-8226, Leukemia; read-out: Percent growth
measurement name: activity at 10 µM (%)
Numeric answer only, unit % assumed.

# example entries with known answers
{"molecule": "O=S(=O)(NCCCNc1nccc(-n2cnc3ccccc32)n1)c1ccc(Br)cc1 [12k]", "data value": 71.1}
{"molecule": "O=S(=O)(NCCCNc1nccc(-n2cnc3ccccc32)n1)c1ccc(C(F)(F)F)cc1 [12l]", "data value": 55.6}
{"molecule": "O=S(=O)(NCCCNc1nccc(-n2cnc3ccccc32)n1)c1ccc(F)cc1 [12i]", "data value": 57.8}
{"molecule": "O=S(=O)(NCCCNc1nccc(-n2cnc3ccccc32)n1)c1ccccc1 [12h]", "data value": 74.3}

Return value of activity at 10 µM for input COc1ccc(S(=O)(=O)NCCNc2nccc(-n3cnc4ccccc43)n2)cc1 [12f] , no commentary.
94

The origin of these recorded values is paper PMC8508980.
